// provenance: paper PMC12416549

- assayed target: T1, TNFR1 (Homo sapiens, UniProt P19438)
- T1 chain: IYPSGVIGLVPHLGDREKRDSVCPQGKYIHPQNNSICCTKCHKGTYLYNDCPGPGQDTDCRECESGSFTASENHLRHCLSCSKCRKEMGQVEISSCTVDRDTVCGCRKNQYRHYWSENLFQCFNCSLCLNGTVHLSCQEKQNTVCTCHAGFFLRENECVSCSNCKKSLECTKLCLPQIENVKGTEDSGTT
- assay overview: yeast display SC50
Record form. Attribute: apparent Kd (screen). Fill in for each entry.
Numbers only, in nM.

Example entries begin here.
binder	measure name	value observed
K107A (designed binder) SMEEEVEKAAKEYEKKKKEAIEKHLEKLKAKDKEAAERFLKELEEAAKEYAKDEAKTMSEEEAKRRAKKYKEKVLLSELSEEEQKEIKEAEEKLVRTILKYVEEAAA	apparent Kd (screen)	1.54
L25P (designed binder) SMEEEVEKAAKEYEKKKKEAIEKHPEKLKAKDKEAAERFLKELEEAAKEYAKDEAKTMSEEEAKRRAKKYKEKVLLSELSEEEQKEIKEAEEKLVRTILKYVEEAAK	apparent Kd (screen)	8.56
K52L (designed binder) SMEEEVEKAAKEYEKKKKEAIEKHLEKLKAKDKEAAERFLKELEEAAKEYALDEAKTMSEEEAKRRAKKYKEKVLLSELSEEEQKEIKEAEEKLVRTILKYVEEAAK	apparent Kd (screen)	0.869
K11C (designed binder) SMEEEVEKAACEYEKKKKEAIEKHLEKLKAKDKEAAERFLKELEEAAKEYAKDEAKTMSEEEAKRRAKKYKEKVLLSELSEEEQKEIKEAEEKLVRTILKYVEEAAK	apparent Kd (screen)	1.69
L76P (designed binder) SMEEEVEKAAKEYEKKKKEAIEKHLEKLKAKDKEAAERFLKELEEAAKEYAKDEAKTMSEEEAKRRAKKYKEKVLPSELSEEEQKEIKEAEEKLVRTILKYVEEAAK	apparent Kd (screen)	1.54
E34P (designed binder) SMEEEVEKAAKEYEKKKKEAIEKHLEKLKAKDKPAAERFLKELEEAAKEYAKDEAKTMSEEEAKRRAKKYKEKVLLSELSEEEQKEIKEAEEKLVRTILKYVEEAAK	apparent Kd (screen)	0.653
E81C (designed binder) SMEEEVEKAAKEYEKKKKEAIEKHLEKLKAKDKEAAERFLKELEEAAKEYAKDEAKTMSEEEAKRRAKKYKEKVLLSELSCEEQKEIKEAEEKLVRTILKYVEEAAK	apparent Kd (screen)	0.869

Entry A63M (designed binder) SMEEEVEKAAKEYEKKKKEAIEKHLEKLKAKDKEAAERFLKELEEAAKEYAKDEAKTMSEEEMKRRAKKYKEKVLLSELSEEEQKEIKEAEEKLVRTILKYVEEAAK : reported apparent Kd (screen) = ?
9.41
